# Tested on: mitochondrial membrane potential (MMP, TMRE signal)
# Protocol Description: Multiplexed cytotoxicity assay (nuclei, ROS, TMRE)
# Format: cell-based, human
# Stated Conditions: human, primary hepatocytes, 3.18E-02 μM; 24 h; read-out: MMP inhibition (fold induction)
Quantity: fold induction at 24 h, 0.0318 μM

>>> number("O=C(Nc1nnc(-c2ccc(F)cc2)o1)N1CCc2ccccc2C1")
0.9

###

# System Under Test: KCNQ1/mink (Homo sapiens, UniProt P51787)
# Construct: Eurofins Discovery Services (contract assay) CYL8007QP2DR
# Protocol Description: cell-based
Quantity: IC50

>>> result("O=C(Nc1nnc(-c2ccc(F)cc2)o1)N1CCc2ccccc2C1")
"> 30 µM"
